These data points were gathered from patent US20240208895A1.

Assay target: OAT3 (SLC22A8) (Homo sapiens)
Construct: host or cells: HEK-293
Sequence (Q8TCC7 1-542): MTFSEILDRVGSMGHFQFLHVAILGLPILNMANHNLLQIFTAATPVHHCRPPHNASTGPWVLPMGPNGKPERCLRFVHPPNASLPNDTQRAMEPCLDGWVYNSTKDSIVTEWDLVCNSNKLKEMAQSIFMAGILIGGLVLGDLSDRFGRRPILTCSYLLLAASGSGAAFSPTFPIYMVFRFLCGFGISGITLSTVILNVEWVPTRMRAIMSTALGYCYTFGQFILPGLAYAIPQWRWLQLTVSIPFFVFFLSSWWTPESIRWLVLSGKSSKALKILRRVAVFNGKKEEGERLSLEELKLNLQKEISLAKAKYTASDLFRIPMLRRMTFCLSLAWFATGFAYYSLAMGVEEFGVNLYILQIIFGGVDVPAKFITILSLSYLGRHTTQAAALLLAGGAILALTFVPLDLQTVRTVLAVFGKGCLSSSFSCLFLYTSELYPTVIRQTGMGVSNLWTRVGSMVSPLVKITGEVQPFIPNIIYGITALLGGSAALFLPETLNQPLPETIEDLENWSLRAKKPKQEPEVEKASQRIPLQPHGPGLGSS
Measurement notes: Inhibition of OAT3 uptake of known substrate estrone-3-sulfate
Format: cell-based
Condition notes: probe substrate estrone-3-sulfate 2 μM
Observed property: IC50 (µM)

>  <Chemical string>
CC(=O)N[C@@H](CC(C)C)C(=O)O

>  <Assay target>
OAT3 (SLC22A8) (Homo sapiens)

>  <U>
µM

>  <Measurement>
700

$$$$
